Assay: Quantitative High-Throughput drug screen in 47 multiple myeloma cell lines against the NCATS MIPE library collection: U266_ATCC cell viability assay (AID 1919864); also: nearly all actives have a fitted effect of over 35% in size
Conditions: U266 myeloma viability, CellTiter-Glo ATP luminescence, 48 h; series mostly up to 45.8 µM
Records with an inconclusive call do not appear. Activity calls are given as the source filed them. Calls follow the shape of the dose curve; as a rule, active = well fitted cell-killing curve with a large enough effect; inconclusive = small, poorly fitted or top-dose-only effect, or effect the other way; inactive = no such curve, though single readings can be large or run the other way.
Can you answer with just one of these options? active, inactive

CN1C(=O)COc2c(C(=O)NC3CN4CCC3CC4)cc(Cl)cc21 (stereo not given) | inactive
O=C(O)CCCc1ccc(N(CCCl)CCCl)cc1 | inactive
CCC1(c2ccc(N)cc2)CCC(=O)NC1=O (stereo not given) | active
CC(C)c1cccc(C(C)C)c1O | inactive

Proceed to the following item.
Fill in: this test's call for CN1C(=O)CCS(=O)(=O)C1c1ccc(Cl)cc1 (stereo not given) is ___
inactive

###

Experiment: Quantitative High-Throughput drug screen in 47 multiple myeloma cell lines against the NCATS MIPE library collection: VP6_DJ cell viability assay (AID 1919867); also: nearly all actives have a fitted effect of over 40% in size
Details: ATP luminescence, 48 h; series mostly up to 45.8 µM
Inconclusive results are not listed. Active and inactive are the calls of the source. The call rests on the fitted dose curve; in most records, active means well fitted cell-killing curve with a large enough effect; inconclusive means small, poorly fitted or top-dose-only effect, or effect the other way; inactive means no such curve, though single readings can be large or run the other way.
Can you answer with just one of these options? label 1 = active, label 0 = inactive

Worked set:
CC(C)c1cccc(C(C)C)c1O | label 0
COc1cc(OC)c(OC)cc1C=O | label 0
C[C@](O)(CS(=O)(=O)c1ccc(F)cc1)C(=O)Nc1ccc(C#N)c(C(F)(F)F)c1 | label 1
O=P1(N(CCCl)CCCl)NCCCO1 (stereo not given) | label 0

Proceed to the following item.
Fill in: this test's call for CN1C(=O)CCS(=O)(=O)C1c1ccc(Cl)cc1 (stereo not given) is ___
label 0

###

Test: qHTS for Inhibitors of the Functional Ribonucleoprotein Complex (vRNP) of Lymphocytic Choriomeningitis Arenaviruses (LCMV): Viability assay - alamar blue signal for LCMV Primary Screen (AID 1347085); also: nearly all actives have a fitted effect of over 80% in size
Settings: alamar blue viability counter-screen, LCMV vRNP screen cells; series mostly up to 57.5 µM
Results filed as inconclusive are left out. Calls of active or inactive are those of the source. Calls come from the whole dose curve; tested in HEK293 reporter line.
result-type: outcome

Below are worked cases with known answers.
C=C(C)[C@H]1CN[C@H](C(=O)O)[C@H]1CC(=O)O | inactive
Nc1ccc([As](=O)(O)O)cc1 | inactive
Cc1c[nH]c2ccccc12 | inactive
Cn1c(=O)c2[nH]c(Br)nc2n(C)c1=O | inactive
COc1cc(C=O)ccc1O | inactive

I would be grateful if you could share the reported outcome for COc1ccnc(CS(=O)c2nc3ccc(OC(F)F)cc3[nH]2)c1OC (configuration not stated) .
inactive

I would be grateful if you could share the reported outcome for CCOC(=O)NNc1ccc(N(CC)CC(C)O)nn1 (configuration not stated) .
inactive

###

Biological target: Vitamin D3 receptor (Homo sapiens) (UniProt P11473)
Sequence (P11473 whole entry, looked up): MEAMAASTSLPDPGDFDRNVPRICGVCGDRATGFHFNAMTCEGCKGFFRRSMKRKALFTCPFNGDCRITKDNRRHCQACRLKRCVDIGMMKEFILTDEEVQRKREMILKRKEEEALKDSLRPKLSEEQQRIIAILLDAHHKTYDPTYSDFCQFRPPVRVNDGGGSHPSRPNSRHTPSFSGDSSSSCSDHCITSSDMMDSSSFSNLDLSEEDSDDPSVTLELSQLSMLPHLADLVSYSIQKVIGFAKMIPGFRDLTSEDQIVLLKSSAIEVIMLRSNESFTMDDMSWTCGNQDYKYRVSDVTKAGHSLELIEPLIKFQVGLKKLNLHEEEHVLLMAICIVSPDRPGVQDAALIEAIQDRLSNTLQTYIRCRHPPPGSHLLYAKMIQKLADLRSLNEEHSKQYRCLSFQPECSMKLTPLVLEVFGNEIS
Assay: qHTS assay for small molecule antagonists of vitamin D receptor signaling (AID 588541)
Details: HEK293T VDR-UAS-bla, beta-lactamase ratio, antagonist mode; series mostly up to 76.7 µM
Records with an inconclusive call do not appear. The source made the active and inactive calls. The call rests on the fitted dose curve.
Can you answer with just one of these options? true for active, false for inactive

Worked set:
O=P1(N(CCCl)CCCl)NCCCO1 (stereo unspecified) | false
O=C(O)CCCc1ccc(N(CCCl)CCCl)cc1 | false
O=C1c2ccccc2C(=O)c2ccccc21 | false
CC(C)NC(C)C | false

Fill in: this test's call for `CCC(C)(C)c1ccc(O)cc1` is ___
false

Fill in: this test's call for CCOC(=O)CC(SP(=S)(OC)OC)C(=O)OCC (stereo unspecified) is ___
false

Fill in: this test's call for `COc1cc(OC)c(OC)cc1C=O` is ___
false

Fill in: this test's call for `COP(=S)(OC)Oc1ccc(SC)c(C)c1` is ___
false

Fill in: this test's call for `Clc1ccc(C(c2ccc(Cl)cc2)C(Cl)(Cl)Cl)cc1` is ___
false

Fill in: this test's call for `[N-]=[N+]=CC(=O)OC[C@H](N)C(=O)O` is ___
false

Fill in: this test's call for `CC(=O)N1CCN(c2ccc(OC[C@H]3CO[C@](Cn4ccnc4)(c4ccc(Cl)cc4Cl)O3)cc2)CC1` is ___
true
